The measured values listed here are drawn from the SangsterLogP compilation.

Would you please tag the item 1.0 when its logP is 2 or above, and 0.0 when it is below?

Record excerpt, results attached:
N=c1nc(N)c(N2CCCC2)cn1O 0.0
C=CCN(CC=C)c1cc(N)[n+]([O-])c(N)n1 0.0
CCNc1cc(N)[n+]([O-])c(N)n1 0.0

Query: Please tell me: is the compound CCCN(CCC)c1cc(N)[n+]([O-])c(N)n1 at or over 2 in terms of logP?
Result: 1.0

Query: Has CCN(CC)c1cc(N)[n+]([O-])c(N)n1 a recorded logP greater than or equal to 2?
Result: 0.0

Query: Please indicate if the recorded logP for Nc1cc(N(C2CCCCC2)C2CCCCC2)nc(N)[n+]1[O-] meets or exceeds 2.
Result: 1.0

Query: Threshold query (logP >= 2) on CCCCNc1cc(N)[n+]([O-])c(N)n1
Result: 0.0

Query: Test whether the compound CNc1cc(N)[n+]([O-])c(N)n1 records logP of 2 or higher.
Result: 0.0

Query: Is reported logP greater than or equal to 2 here: Nc1cc(NC2CCCCC2)nc(N)[n+]1[O-]
Result: 0.0
